Reference source for all entries: PubChem BioAssay AID248

Catalogue of T/C readings, one per entry.
- Test system: L1210 leukemia ip in BDF1 mice, survival T/C
- experiment.notes: NCI In Vivo Anticancer Drug Screen. Data for tumor model L1210 Leukemia (intraperitoneal) in B6D2F1 (BDF1) mice
- conditions: endpoint: mean survival time; dose: 25.0 mg/kg/injection; schedule: Q04DX002 (ip); vehicle: saline with Tween-80; higher = longer survival
- Protocol: The antitumor activity of compounds was measured in mice bearing transplantable tumors. Survival or tumor size were measured and the results are expressed as the measurement made in the treated group (T) divided by the measurement made in the vehicle treated control group (C). The tumor model used in this assay is L1210 Leukemia (intraperitoneal) in B6D2F1 (BDF1) mice
Toxic doses and inconclusive results are not listed.

compound | T/C
NC(N)=NCCCS(=O)(=O)Nc1ccc(Nc2c3ccccc3nc3cc([N+](=O)[O-])ccc23)cc1 | 124 % of control
C=CCNC(=O)c1ccccc1 | 97 % of control
c1ccc(CC(CNCC2C(c3ccccc3)C2c2ccccc2)c2ccccc2)cc1 (centres undefined) | 93 % of control

Next up:
Asked: Retrieve T/C on L1210 leukemia ip in BDF1 mice, survival T/C; query OC1CC23C(O)CCCC12C1C=CC3C1 (centres undefined)
Given back: 95 % of control

###

Catalogue of T/C readings, one per entry.
- System: L1210 leukemia ip in BDF1 mice, survival T/C
- experiment.notes: NCI In Vivo Anticancer Drug Screen. Data for tumor model L1210 Leukemia (intraperitoneal) in B6D2F1 (BDF1) mice
- conditions: endpoint: mean survival time; dose: 200.0 mg/kg/injection; schedule: Q01DX001 (ip); vehicle: other; higher = longer survival
Toxic doses and inconclusive results are not listed.

These solved cases illustrate the format of a correct answer.
molecule | observable | result
N#CCCCCCCCCC(=O)OCCC#N | T/C | 98 % of control
CCSSCC(N)C(=O)O (configuration not stated) | T/C | 103 % of control
CCCCCCCCCCCCCCCCCC(=O)OCC(=O)C(OC(=O)CCCCCCCCCCCCCCCCC)C(OC(=O)CCCCCCCCCCCCCCCCC)C(COC(=O)CCCCCCCCCCCCCCCCC)OC(=O)CCCCCCCCCCCCCCCCC (configuration not stated) | T/C | 98 % of control
CCCCCCN(CCCCCC)[N+](=O)[O-] | T/C | 100 % of control
O=Cc1ccc2cc(Cl)ccc2n1 | T/C | 110 % of control

Asked: Quote T/C reported for CC(C)(C)N1OC1c1cccc(Cl)c1 (configuration not stated) please.
Given back: 94 % of control

Asked: Quote T/C reported for O=C(O)c1ccc(C2CC2)cc1 please.
Given back: 108 % of control

Asked: Quote T/C reported for O=[N+]([O-])c1ccccc1N=Nc1c(O)[nH]c2ccccc12 please.
Given back: 98 % of control

Asked: Quote T/C reported for Oc1c(Cl)cc(Cl)cc1C=Nc1ccc(Br)cn1 please.
Given back: 101 % of control

Asked: Quote T/C reported for CCOC(=O)CCC(NC(=O)c1ccc(N(C)Cc2cnc3nc(NC(C)=O)cc(NC(C)=O)c3n2)cc1)C(=O)OCC (configuration not stated) please.
Given back: 93 % of control

Asked: Quote T/C reported for CN(C)c1ccc(C(Nc2ccccc2)C(Nc2ccccc2)c2ccc(N(C)C)cc2)cc1 (configuration not stated) please.
Given back: 87 % of control

Asked: Quote T/C reported for COC(=O)c1nc(N)n[nH]1 please.
Given back: 95 % of control

Asked: Quote T/C reported for COC(=O)CCC(=O)c1cc(OC)c2cc3ccccc3cc2c1OC please.
Given back: 96 % of control

Asked: Quote T/C reported for O=C(COc1ccc(Cl)cc1Cl)Nc1cc(C(F)(F)F)ccc1Cl please.
Given back: 89 % of control

Asked: Quote T/C reported for CCOc1ccc(NC(C)=O)cc1Br please.
Given back: 103 % of control

Asked: Quote T/C reported for Cc1cc(C)c(C(=O)O)c(C)c1Br please.
Given back: 96 % of control

Asked: Quote T/C reported for CCOC(=O)Nc1cc(Cl)c([N+](=O)[O-])c(NC(=O)OCC)n1 please.
Given back: 91 % of control

###

- Tested on: L1210 leukemia ip in BDF1 mice, survival T/C
- experiment.notes: NCI In Vivo Anticancer Drug Screen. Data for tumor model L1210 Leukemia (intraperitoneal) in B6D2F1 (BDF1) mice
- conditions: endpoint: mean survival time; dose: 12.5 mg/kg/injection; schedule: Q01DX009 (ip); vehicle: saline with Tween-80; higher = longer survival
Toxic doses and inconclusive results are not listed.
observable: T/C

These solved cases illustrate the format of a correct answer.
compound | result
Cc1ccc(S(=O)(=O)Nc2ncc([N+](=O)[O-])s2)cc1 | 101 % of control
Cc1nnc(NN)nc1C | 103 % of control
[C-]#[N+]C(C)(CC)c1ccccc1 (stereo not given) | 95 % of control
Clc1ccc2nnnn2n1 | 97 % of control

Next up:
Asked: Quote T/C reported for O=C(CCBr)c1ccc(Cl)cc1 please.
Given back: 91 % of control

###

- System: L1210 leukemia ip in BDF1 mice, survival T/C
- experiment.notes: NCI In Vivo Anticancer Drug Screen. Data for tumor model L1210 Leukemia (intraperitoneal) in B6D2F1 (BDF1) mice
- conditions: endpoint: mean survival time; dose: 100.0 mg/kg/injection; schedule: Q01DX001 (ip); vehicle: other; higher = longer survival
Inconclusive results and toxic doses are left out.
observable: T/C

These solved cases illustrate the format of a correct answer.
compound | observable | result
CC(=O)OCC(=O)C1(O)CCC2C3CCC4CC(OC(C)=O)CCC4(C)C3CC(=O)C21C (stereo not given) | T/C | 106 % of control
O=C(Nc1ccccc1)C(Cl)(Cl)Cl | T/C | 102 % of control
COC(=O)CCC(=O)c1cc(OC)c2cc3ccccc3cc2c1OC | T/C | 96 % of control
CCSSCC(N)C(=O)O (stereo not given) | T/C | 94 % of control

Next up:
Asked: Quote T/C reported for COC(=O)C(Nc1ccc([N+](=O)[O-])cc1[N+](=O)[O-])C(C)O (stereo not given) please.
Given back: 104 % of control

###

Catalogue of T/C readings, one per entry.
- Test system: L1210 leukemia ip in BDF1 mice, survival T/C
- experiment.notes: NCI In Vivo Anticancer Drug Screen. Data for tumor model L1210 Leukemia (intraperitoneal) in B6D2F1 (BDF1) mice
- conditions: endpoint: mean survival time; dose: 50.0 mg/kg/injection; schedule: Q01DX001 (ip); vehicle: carboxymethylcellulose (CMC); higher = longer survival
Inconclusive results and toxic doses are left out.

These solved cases illustrate the format of a correct answer.
molecule | T/C
COc1c2c(c3c(c1O)c(=O)c1ccccc1n3C)OCO2 | 104 % of control
C(=C\c1ccccc1)/C=N/Nc1nnc(N/N=C/C=C/c2ccccc2)c2ccccc12 | 102 % of control
CN(N=O)c1ccc(/C=C2\C=Cc3ccccc32)cc1 | 96 % of control

Asked: Quote T/C reported for CCOC(=O)/C(C)=N\Nc1ccc([N+](=O)[O-])cc1 please.
Given back: 92 % of control

Asked: Quote T/C reported for CCOC(=O)CCC(=O)NNc1ccccc1 please.
Given back: 106 % of control

Asked: Quote T/C reported for CCSC1OC(CO)C(O)C1Nc1ccc([N+](=O)[O-])cc1[N+](=O)[O-] (stereo unspecified) please.
Given back: 89 % of control

###

- System: L1210 leukemia ip in BDF1 mice, survival T/C
- experiment.notes: NCI In Vivo Anticancer Drug Screen. Data for tumor model L1210 Leukemia (intraperitoneal) in B6D2F1 (BDF1) mice
- conditions: endpoint: mean survival time; dose: 200.0 mg/kg/injection; schedule: Q04DX003 (ip); vehicle: Klucel (hydroxypropylcellulose) (HPC); higher = longer survival
Inconclusive results and toxic doses are left out.
observable: T/C

compound | T/C
O=P1(c2ccccc2)CCc2[nH]c3ccc(Cl)cc3c2C1 (stereo not given) | 107 % of control
C=CCOc1ccc(OCC=C)nn1 | 97 % of control
CC(C(=O)c1cccs1)C(O)(C(F)(F)F)C(F)(F)F (stereo not given) | 95 % of control
O=C1c2sccc2-c2cccc3cccc1c23 (tested in a mixture with another compound) | 102 % of control
CCOC(=O)Nc1ccccc1 | 93 % of control
O=C(Nc1ccccc1Cl)Oc1ccc(-c2ccccc2)cc1Br | 96 % of control
Cc1cccc(NC(=O)/C=N/O)c1C | 98 % of control
Cc1ccc(N=Cc2ccc([N+](=O)[O-])s2)cc1Cl | 89 % of control

Asked: Quote T/C reported for CN(C)N=Nc1ccccc1C(F)(F)F please.
Given back: 104 % of control

Asked: Quote T/C reported for CC(C)(c1cc(Br)c(O)c(Br)c1)c1cc(Br)c(O)c(Br)c1 please.
Given back: 92 % of control

Asked: Quote T/C reported for O=C(N/N=C\c1ccc(Cl)c(Cl)c1)N/N=C/c1ccc(Cl)c(Cl)c1 please.
Given back: 92 % of control

Asked: Quote T/C reported for Cc1cc(OC(=O)Nc2cc([N+](=O)[O-])ccc2F)cc(C)c1Cl please.
Given back: 91 % of control

Asked: Quote T/C reported for O=c1[nH]c2cc(F)ccc2o1 please.
Given back: 103 % of control

Asked: Quote T/C reported for FC(F)(F)c1ccc(Cl)c(NC2=NCCCS2)c1 please.
Given back: 95 % of control

Asked: Quote T/C reported for COc1c([N+](=O)[O-])cc(C(=O)O)cc1[N+](=O)[O-] please.
Given back: 97 % of control
